Target: Opioid receptors; delta & kappa (Homo sapiens, UniProt P41145+P41143)
Test: Inhibition of [3H]U-69593 binding to delta and kappa opioid receptors coexpressed in HEK 293 cells
Type: cell-based
Conditions: hek293
property-label: Ki (nM)

- cpd-smiles: "CNC(=O)CNC(=O)CNC(=O)CCC(=O)NCC(=O)NCC(=O)Nc1cccc([C@@H](CN2CCCC2)N(C)C(=O)Cc2ccc(Cl)c(Cl)c2)c1"
  result-qualifier: "="
  quantitative-readout: 36.2
- cpd-smiles: "CNC(=O)CNC(=O)CCC(=O)NCC(=O)Nc1cccc([C@@H](CN2CCCC2)N(C)C(=O)Cc2ccc(Cl)c(Cl)c2)c1"
  result-qualifier: "="
  quantitative-readout: 41.6
- cpd-smiles: "CNC(=O)CNC(=O)CNC(=O)CCC(=O)NCC(=O)NCC(=O)Nc1cccc2c3c([nH]c12)[C@@H]1Oc2c(O)ccc4c2[C@@]12CCN(CC1CC1)[C@H](C4)[C@]2(O)C3"
  result-qualifier: ">"
  quantitative-readout: 1000
- cpd-smiles: "CN(C(=O)Cc1ccc(Cl)c(Cl)c1)[C@H](CN1CCCC1)c1cccc(NC(=O)CNC(=O)CNC(=O)CCC(=O)NCC(=O)NCC(=O)Nc2cccc3c4c([nH]c23)[C@@H]2Oc3c(O)ccc5c3[C@@]23CCN(CC2CC2)[C@H](C5)[C@]3(O)C4)c1"
  result-qualifier: "="
  quantitative-readout: 0.06
- cpd-smiles: "CN(C(=O)Cc1ccc(Cl)c(Cl)c1)[C@H](CN1CCCC1)c1cccc(NC(=O)CNC(=O)CCC(=O)NCC(=O)Nc2cccc3c4c([nH]c23)[C@@H]2Oc3c(O)ccc5c3[C@@]23CCN(CC2CC2)[C@H](C5)[C@]3(O)C4)c1"
  result-qualifier: "="
  quantitative-readout: 1.66
- cpd-smiles: "CNC(=O)CNC(=O)CCC(=O)NCC(=O)Nc1cccc2c3c([nH]c12)[C@@H]1Oc2c(O)ccc4c2[C@@]12CCN(CC1CC1)[C@H](C4)[C@]2(O)C3"
  result-qualifier: ">"
  quantitative-readout: 1000
